system: lipase AP 12; test: Nucleophile screening for lipase AP 12 catalyzed deacetylation of SOA in diisopropyl ether; assay type: biochemical, Aspergillus niger; conditions: lipase AP 12, nucleophile 200 mM, 66 hrs
test-readout: % conv (%)
# output: bare number, implied unit %

Below, 2 compounds whose answers are already recorded.
compound	% conv / %
CO	28.2
OCc1ccccc1	22.5

Query compound follows.
Consider the compound CCCCO and give its measured % conv.
25.7

----------
biological target: alcalase (Bacillus licheniformis); construct: purchased Novo Nordisk (gift); test: Nucleophile screening for alcalase catalyzed deacetylation of SOA in diisopropyl ether; format: biochemical; conditions: nucleophile 200 mM, peak height ratio 1'-OH / 6'-OH heptaacetate
Sequence (P00780 106-379): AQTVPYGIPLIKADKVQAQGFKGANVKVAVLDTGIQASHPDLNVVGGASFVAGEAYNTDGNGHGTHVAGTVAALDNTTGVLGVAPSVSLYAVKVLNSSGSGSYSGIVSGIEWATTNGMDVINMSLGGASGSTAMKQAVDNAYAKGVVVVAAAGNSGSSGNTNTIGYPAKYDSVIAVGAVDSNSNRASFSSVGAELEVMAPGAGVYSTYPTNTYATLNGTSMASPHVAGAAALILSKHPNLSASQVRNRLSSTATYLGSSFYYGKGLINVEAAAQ
test-readout: regiochem

Example entries begin here.
molecule	test-readout	recorded-result
CC(C)NC(C)C	regiochem	9.5
CCCO	regiochem	8.8
OCCC1CCCCN1 (stereo not shown)	regiochem	8.6
OC1CCCCC1	regiochem	8.0
OCC1CCCCC1	regiochem	8.1

Recorded regiochem for CO with alcalase (Bacillus licheniformis), please?
8.6

Also check CCO
7.5

Subsequent entry: CCCCO
7.4

How about OCc1ccccc1 ?
8.1

Here is the next molecule: OCCc1ccccc1
7.3

----------
system: lipase AY 30; assay: Effect of the solvent on lipase AY 30 catalyzed deacylation of SOP; type: biochemical, Candida cylindracea; settings: lipase AY 30, 24 hrs, HPLC peak 9.4 min
test-readout: SheptaP's (9.4 min) (%)
Field: numeric (%). Do not append units.

Examples with answers:
molecule	SheptaP's (9.4 min) / %
COC(C)(C)C	5.9
CCCCCCCO	0.7
CCCCCCCC	2.9

Return reported SheptaP's (9.4 min); argument: C1CCOC1 [THF, tetrahydrofuran]
0.1

Moving on to the next molecule: CCC(C)=O
0.2

Another molecule to look at: CCCCCCCCO
1.1

Try this molecule too: CC(C)=O
0.1

Another molecule to check: CCCCCC
5.7

// same read-out, input: CCCCOC(C)=O [n-butyl acetate]
0.7

Param item: CCCCCCC
4.4

How about this molecule: CCCCC(=O)CC
2.9

Could you do the same for ClC(Cl)(Cl)Cl [CCl4, carbon tetrachloride] , please?
0.7

Now this one: Cc1ccccc1
1.2

Now try CC(C)OC(C)C .
13.5

Another molecule: CC#N
0.2

Can you check C1CCCCC1 next?
5.2

Another molecule to check: O=C1CCCCC1
0.3

----------
system: proleather; assay: Solvent effect on proleather catalyzed deacetylation of SOA; format: biochemical, Bacillus subtilis; conditions: solvent as labelled, 24 hrs
Each entry below carries its recorded SOA.
Expressed in %, but write only the number.

Known results for compounds:
compound	SOA, %
COc1ccccc1 [anisole]	79.2
Cc1ccccc1 [toluene]	82.8
COC(C)(C)C [t-butyl methyl ether]	72.4

Dear colleague, I am looking for the recorded SOA of the following compound: ClC(Cl)(Cl)Cl [CCl4, carbon tetrachloride]
89.1

Entry to check: CC(C)OC(C)C [diisopropyl ether]
70.6

Another compound to check: CCCOCCC [dipropyl ether]
75.2

What about this compound? CCCCOC(C)=O [n-butyl acetate]
81.3

Now try c1ccccc1 [benzene] .
84.8

What would you report for C1CCOC1 [THF, tetrahydrofuran] ?
97.4

----------
test system: lipase AP 12; experiment: Solvent effect on lipase AP 12 catalyzed deacetylation of SOA; assay type: biochemical, Aspergillus niger; conditions: lipase AP 12, solvent as labelled, 24 hrs
Recorded SOA, one value per entry.

Examples with answers:
compound	SOA
CCCCOCC	81.6%
C1CCOC1 [THF, tetrahydrofuran]	98.4%
c1ccccc1	96.6%

Short answer please: SOA, lipase AP 12, entry ClC(Cl)(Cl)Cl [CCl4, carbon tetrachloride]
95.1%

Another compound to look at: Cc1ccccc1
94.2%

// repeat for CCCOCCC and report
81.8%

Next compound: CCCCOC(C)=O [n-butyl acetate]
97.6%

For COc1ccccc1 then?
96.2%

Lookup CC(C)OC(C)C
82.7%

Where do these numbers come from? They come from patent US5445951A.
